Attribution: the RNAGym collection of RNA variant scans (doi:10.7554/elife.90254)

B1: OR4K15 (parent)
chain: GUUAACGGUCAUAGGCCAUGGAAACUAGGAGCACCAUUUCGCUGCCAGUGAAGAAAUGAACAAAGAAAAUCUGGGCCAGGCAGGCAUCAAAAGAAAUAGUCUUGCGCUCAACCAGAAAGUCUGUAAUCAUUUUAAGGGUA

Variants of: B1
experimental.protocol: self-cleavage, relative activity (ratio to wild type); higher = more cleavage; in vitro, sequencing; the parent is a self-cleaving ribozyme
Here, each record is paired with measured self-cleavage data.

| mutation.label | self-cleavage |
| --- | --- |
| A63G A86C | 1.21 |
| A36G A90C | 1.15 |
| A13U A125U | 1.71 |
| G14U A94G | 1.84 |
| A67G A91G | 1.07 |
| A92G A126G | 1.18 |
| A11U A117G | 1.41 |
| A36U A55G | 1.4 |
| U57A U132A | 0.7 |
| A95G U102C | 2.62 |
| A36G U43G | 1.28 |
| C10A A96G | 1.33 |
| A55G A126U | 0.86 |
| A23G U124A | 0.25 |
| A22U G123U | 1.96 |
| A27C U87A | 1.13 |
| A36U A111G | 0.02 |
| U122C G123A | 1.6 |
| U43A U139C | 2.42 |
| U122A A129G | 1.38 |
| A56G A111G | 0.01 |
| G7A U19C | 1.14 |
| A30G U37G | 1.08 |
| A22G A114U | 0.08 |
| A64G C85U | 0.98 |
| U3C U131C | 0.51 |
| A24G U72A | 0.28 |
| U37A A51U | 1.05 |
| C40G G74A | 0.29 |
| U19C U124C | 0.87 |
| A110C A125G | 0.11 |
| A92C | 1.27 |
| A30U C113U | 0.04 |
| U3C A126G | 0.58 |
| A82U A135U | 0.12 |
| U70C U72A | 0.21 |
| U39G A47U | 0.98 |
| U49C G137U | 2.29 |
| U26C A126U | 1.29 |
| A5G A54G | 1.04 |
| A30G A90G | 1.37 |
| U72C A117C | 0.08 |
| U12A A89G | 1.57 |
| C6U C77U | 0.34 |
| A33G A67U | 1.36 |
| A54C A64G | 1.36 |
| G31A A59G | 1.04 |
| A55U A67U | 1.6 |
| A18U A56G | 1.48 |
| C34A U57C | 1.31 |
| A86G A89G | 1.42 |
| A69G A96C | 1.58 |
| A18C A118G | 1.22 |
| A5U U100G | 1.03 |
| A54G U127C | 1.07 |
| A13G U108C | 0.05 |
| U19C A98G | 0.25 |
| U72C U102A | 0.07 |
| G65A A126U | 0.76 |
| C46U A56G | 1.12 |
| A66U A111G | 0.01 |
| A51C A67G | 0.66 |
| G73U U108C | 0.02 |
| G84A A117G | 2.38 |
| U120C A126U | 0.57 |
| A92U A129U | 1 |
| U2C A62C | 1.39 |
| A56G A67G | 0.97 |
| A30G A60U | 0.79 |
| G1A A114G | 1.32 |
| C35U A134G | 1.23 |
| A22U C121A | 2.6 |
